System: E. coli
measurement_notes: Minimal Inhibitory Concentration (MIC) determination, 96 well plates
Type: cell-based, Escherichia coli
experimental_conditions: Escherichia coli; HBI medium, 16 to 18 hours at 37°C; read-out: MIC (µg/ml) E. coli
measured_endpoint: MIC

CCc1cc(Nc2cc(=O)n(CCCCN3CCN(c4cc5c(cc4F)c(=O)c(C(=O)O)cn5CC)CC3)c(=O)[nH]2)ccc1C :: > 20 µg/mL
CCc1cc(Nc2cc(=O)n(CCCCN3CCN(c4cc5c(cc4F)c(=O)c(C(=O)O)cn5-c4ccc(F)cc4F)CC3C)c(=O)[nH]2)ccc1C (stereo not drawn) :: > 80 µg/mL
CCc1cc(Nc2cc(=O)n(CCOCCN3CCN(c4cc5c(cc4F)c(=O)c(C(=O)O)cn5C4CC4)CC3)c(=O)[nH]2)ccc1C :: > 80 µg/mL

---

The compounds listed here are annotated with their MIC.
System: S. aureus
measurement_notes: Minimal Inhibitory Concentration (MIC) determination, 96 well plates
Format: cell-based, Staphylococcus aureus
experimental_conditions: Staphylococcus aureus; HBI medium, 16 to 18 hours at 37°C; read-out: MIC (µg/ml) S. aureus
measured_endpoint: MIC

Cc1ccc(Nc2cc(=O)n(CCCCN3CCN(c4c(F)cc5c(=O)c(C(=O)O)cn(C6CC6)c5c4F)C[C@@H]3C)c(=O)[nH]2)cc1C :: 0.313 µg/mL
CCc1cc(Nc2cc(=O)n(CCCCN3CCN(c4cc5c(cc4F)c(=O)c(C(=O)O)cn5-c4ccc(F)cc4F)CC3C)c(=O)[nH]2)ccc1C (stereo not shown) :: 0.313 µg/mL
CCc1cc(Nc2cc(=O)n(CCCCN3CCN(c4cc5c(cc4F)c(=O)c(C(=O)O)cn5CC)CC3)c(=O)[nH]2)ccc1C :: 0.625 µg/mL
CCc1cc(Nc2cc(=O)n(CCCCN3CCN(c4cc5c(cc4F)c(=O)c(C(=O)O)cn5C4CC4)C[C@H]3C)c(=O)[nH]2)ccc1C :: 1.25 µg/mL
